Test system: Streptococcus pyogenes SSI-9
Experiment: Antibacterial activity assay of bead-derived peptides (three concentrations)
Format: cell-based
Set-up: key: +++: inhibition by the 640-fold diluted peptide solution; ++: inhibition by the 160-fold diluted solution; +: inhibition by the 40-fold diluted solution; -: no inhibition
Settings: S. pyogenes, bead-derived peptide solution, three concentrations
Experimental: Each type of assay must be simplified and miniaturized to assess the activities of the library peptides in a 96-well format for the high-throughput screening. Next, the peptides in groups A and B were subjected to the antibacterial assay and structural determination. Three peptide concentrations were applied to evaluate the growth inhibition of S. pyogenes and determine the antibacterial activity. […] Finally, the structures of the peptides were determined. […]
Where a SMILES comes first, the peptide text is derived from it. [ ]: non-standard residue; d: D form. The star is where a group is joined. NHCH2CH2OH = OCCN*; For = O=C*
readout: antibacterial activity

[
  {
    "compound": "CC(C)C[C@@H](NC(=O)[C@H](C)NC(=O)CNC(=O)[C@@H](NC=O)C(C)C)C(=O)N[C@@H](C)C(=O)N[C@H](CC(C)C)C(=O)N[C@H](C(=O)N[C@H](CC(C)C)C(=O)N[C@@H](Cc1c[nH]c2ccccc12)C(=O)N[C@H](CC(C)C)C(=O)N[C@@H](Cc1c[nH]c2ccccc12)C(=O)N[C@@H](C(=O)N[C@@H](Cc1c[nH]c2ccccc12)C(=O)N[C@@H](C(=O)N[C@@H](Cc1c[nH]c2ccccc12)C(=O)NCCO)C(C)C)[C@H](C)O)C(C)C [compound 3143] (For-VGA[dL]A[dL]V[dL]W[dL]W[dT]W[dV]W-NHCH2CH2OH)",
    "value-reported": "+"
  },
  {
    "compound": "CNC(=O)C[C@@H](NC(=O)[C@@H](NC(=O)[C@@H](CC(C)C)NC(=O)[C@H](C)NC(=O)[C@H](NC(=O)[C@H](C)NC(=O)CNC(=O)[C@@H](NC=O)C(C)C)C(C)C)C(C)C)C(=O)N[C@@H](Cc1c[nH]c2ccccc12)C(=O)N[C@H](CC(C)C)C(=O)N[C@@H](Cc1c[nH]c2ccccc12)C(=O)N[C@@H](C(=O)N[C@@H](Cc1c[nH]c2ccccc12)C(=O)N[C@@H](C(=O)N[C@@H](Cc1c[nH]c2ccccc12)C(=O)NCCO)C(C)C)C(C)C [compound 11349] (For-VGA[dV]A[dL]V[dD](NHMe)W[dL]W[dV]W[dV]W-NHCH2CH2OH)",
    "value-reported": "-"
  },
  {
    "compound": "CNC(=O)C[C@@H](NC(=O)[C@@H](NC(=O)[C@@H](CC(C)C)NC(=O)[C@H](C)NC(=O)[C@@H](CC(C)C)NC(=O)[C@H](C)NC(=O)CNC(=O)[C@@H](NC=O)C(C)C)C(C)C)C(=O)N[C@@H](Cc1c[nH]c2ccccc12)C(=O)N[C@H](CC(C)C)C(=O)N[C@@H](Cc1c[nH]c2ccccc12)C(=O)N[C@H](CC(C)C)C(=O)N[C@@H](Cc1c[nH]c2ccccc12)C(=O)N[C@@H](C(=O)N[C@@H](Cc1c[nH]c2ccccc12)C(=O)NCCO)[C@H](C)O [compound 3929] (For-VGA[dL]A[dL]V[dD](NHMe)W[dL]W[dL]W[dT]W-NHCH2CH2OH)",
    "value-reported": "-"
  },
  {
    "compound": "CC(C)C[C@@H](NC(=O)[C@H](Cc1c[nH]c2ccccc12)NC(=O)[C@@H](CC(C)C)NC(=O)[C@@H](NC(=O)[C@H](NC(=O)[C@H](C)NC(=O)[C@H](NC(=O)[C@H](C)NC(=O)CNC(=O)[C@@H](NC=O)C(C)C)[C@H](C)O)C(C)C)C(C)C)C(=O)N[C@@H](Cc1c[nH]c2ccccc12)C(=O)N[C@H](CC(C)C)C(=O)N[C@@H](Cc1c[nH]c2ccccc12)C(=O)N[C@@H](C(=O)N[C@@H](Cc1c[nH]c2ccccc12)C(=O)NCCO)C(C)C [compound 4236] (For-VGA[dT]A[dV]V[dL]W[dL]W[dL]W[dV]W-NHCH2CH2OH)",
    "value-reported": "-"
  }
]
